System: NCI-H460 lung
Assay: NCI-60 one-dose screen, 48 h
Settings: 10 µM unless noted
Compounds without any hit were thinned out: in the full panel of roughly 83,000, 20% have a hit. Calls of active or inactive are those of the source. Rule for the calls: active = growth percent below 10; inactive = the rest.
Form entry, call: pick from yes = active, no = inactive

As a guide, the following entries are already answered.
O=C1c2cccc3c(-c4ccc(-c5nc6c7ccccc7c7ccccc7c6[nH]5)cc4)ccc(c23)C(=O)N1CCN1CCNCC1; no
O=C(Nc1cccc2[nH]c(C(F)(F)F)nc12)c1cc(Cl)ccc1Cl; no

Call for entry COc1ccc(CN2C(=O)/C(=C\c3cc(OC)c(OC)c(OC)c3)c3ccccc32)cc1 : yes

Call for entry CC(C)(O)c1cccc(F)c1 : no

Call for entry OCCCCc1nccc2c1[nH]c1ccccc12 : no

---

Listed here: items and their measured growth.
Test system: T-47D breast
Experiment: NCI-60 one-dose screen, 48 h (100 = growth as untreated, 0 = no growth, -100 = all killed)
Conditions: 10 µM unless noted
This is part of a sample that, as a whole, favours compounds with a hit. Of some 83,000 tested, about 20% had one in any assay.
Answer with a number only, understood to be in %.

These solved cases illustrate the format of a correct answer.
CCOc1ccc2nc(-c3cccc(OCC(=O)NC(C)C)c3)nc(Nc3ccc(-c4cn[nH]c4)cc3)c2c1; -25.2
N#Cc1c(-c2ccccc2)nc(SCC2CO2)nc1N1CCOCC1 (stereo not given); 15.4
C[C@@H]1CC[C@@H]2[C@@H]1[C@H](OC(=O)/C=C/c1ccccc1)[C@]1(CCCOCCOCCOCCOC(=O)CCCC[C@@H]3SC[C@@H]4NC(=O)N[C@@H]43)C[C@@H](OC(=O)CO)[C@@]2(C)O1; 92.4
O=c1[nH]c(NCc2nnnn2-c2ccc(Br)cc2)nc2sc3c(c12)CCCC3; 74.3
CCCCCCCSc1ccc(C(=O)O)cc1; 107

Reported growth of CN(C)S(=O)(=O)n1cnc([C@@H]2[C@@H]3C(=O)OC[C@@H]3C[C@]23N=CN(Cc2ccccc2)C3=O)c1 : 102

Reported growth of CCOC(=O)c1c2c(c(C)n1C)-c1nn(Cc3ccc(OC)cc3)cc1CC2 : 64.4

Reported growth of N#C/C=C(\c1ccc([N+](=O)[O-])cc1)n1nnc2cc(Cl)c(Cl)cc21 : 28.5

Reported growth of CC1=NN(c2cccc(Cl)c2)C(=O)/C1=C\c1cn(CC(O)CN2CCCCC2)c2ccccc12 (stereo not given) : 83.3

Reported growth of COc1ccc(-n2sc(=O)n(Cc3ccc(COC(=O)C(C)c4ccc(CC(C)C)cc4)cc3)c2=O)cc1 (stereo not given) : 10.6

Reported growth of C=CC(=O)N[C@@H](Cc1ccc(-c2cc(Cl)cc(Cl)c2)cc1)[C@@H](O)[C@H](O)C(=O)O : 96.1

Reported growth of COc1cccc(/C=C2\COc3ccc(O)cc3C2=O)c1OC : 74.8

Reported growth of Clc1ccc(-c2nnc(-c3ccco3)o2)cc1 : 99.2

Reported growth of COc1ccc(-c2cc(-c3cc(OC)ccc3OC)[nH]c(=O)c2C#N)cc1 : 63.8

Reported growth of CCn1c(Sc2nnc(NC(C)=O)s2)nc2c1c(=O)n(C)c(=O)n2C : 93

Reported growth of COc1cccc(CCC2CCCN(c3cc(C)nc(N)n3)C2)c1 (stereo not given) : 45.9
